- System: RPA194
- protocol description: Determination of RPA194 IC50 (immunofluorescence image analysis of RPA194 degradation)
- Assay type: cell-based
- measurement parameters: U2OS cells, 3 h treatment, 0.1-10 μM, fold change to control, three-parameter fit
Reported IC50 values are given for each entry in this list.

| compound | IC50 (µM) |
| --- | --- |
| CC(N)CNC(=O)c1cccn2c(=O)c3cc4ccccc4cc3nc12 (centres unmarked) | 0.1 |
| C[C@H](N)CNC(=O)c1cccn2c(=O)c3cc4ccccc4cc3nc12 | 0.12 |
| CCN(CC)C1CCN(C(=O)c2cccn3c(=O)c4cc5ccccc5cc4nc23)C1 (centres unmarked) | 32 |
| CC(C)(N)CNC(=O)c1cccn2c(=O)c3cc4ccccc4cc3nc12 | 0.27 |
| C[C@@H](N)CNC(=O)c1cccn2c(=O)c3cc4ccccc4cc3nc12 | 0.11 |
